Entry source: patent US9073855B2

measurement_target: GST-Bcl-2 (Homo sapiens)
method: TR-FRET binding assay, GST-Bcl-2 with F-Bak peptide probe
condition: TR-FRET Binding Affinity, GST-Bcl-2, F-Bak peptide probe
Label key: y means Ki under 0.09 nM; n means Ki of 0.09 nM or more.

| molecule | group_label |
| --- | --- |
| CC1(C)CCC(CN2CCN(c3ccc(C(=O)NS(=O)(=O)c4ccc(C(=O)NCC5CCOCC5)cc4)c(Oc4ccc5[nH]ccc5c4)c3)CC2)=C(c2ccc(Cl)cc2)C1 [Example 308] | n |
| CC1(C)CCC(CN2CCN(c3ccc(C(=O)NS(=O)(=O)c4ccc(NC5CCOCC5)c([N+](=O)[O-])c4)c(Oc4ccc5[nH]ccc5c4)c3)CC2)=C(c2ccc(Cl)cc2)C1 [Example 263] | n |
| CC1(C)CCC(CN2CCN(c3ccc(C(=O)NS(=O)(=O)c4ccc(NCC(F)(F)F)c([N+](=O)[O-])c4)c(Oc4cccc5[nH]ccc45)c3)CC2)=C(c2ccc(Cl)cc2)C1 [Example 343] | n |
| CC1(C)CCC(CN2CCN(c3ccc(C(=O)NS(=O)(=O)c4cnc(OCC5(F)CCOCC5)c(Cl)c4)c(Oc4cccc5[nH]ncc45)c3)CC2)=C(c2ccc(Cl)cc2)C1 [Example 404] | y |

Query block: Threshold test, Ki < 0.09 nM: CC1(C)CCC(CN2CCN(c3ccc(C(=O)NS(=O)(=O)c4ccc(OCC#CCN5CCOCC5)c([N+](=O)[O-])c4)c(Oc4ccc5[nH]ccc5c4)c3)CC2)=C(c2ccc(Cl)cc2)C1 [Example 390]
Result block: n

Query block: Does CC1(C)CCC(CN2CCN(c3ccc(C(=O)NS(=O)(=O)c4ccc(S(C)(=O)=O)cc4)c(Oc4ccc5[nH]ccc5c4)c3)CC2)=C(c2ccc(Cl)cc2)C1 [Example 382] have Ki strictly under 0.09 nM?
Result block: n

Query block: # strict comparison: is reported Ki < 0.09 nM? input = Cn1cncc1CNc1ccc(S(=O)(=O)NC(=O)c2ccc(N3CCN(CC4=C(c5ccc(Cl)cc5)CC(C)(C)CC4)CC3)cc2Oc2ccc3[nH]ccc3c2)cc1[N+](=O)[O-] [Example 360]
Result block: n

Query block: Dear reviewer, please state whether CN1CCN(CCCNc2ccc(S(=O)(=O)NC(=O)c3ccc(N4CCN(CC5=C(c6ccc(Cl)cc6)CC(C)(C)CC5)CC4)cc3Oc3ccc4[nH]ccc4c3)cc2[N+](=O)[O-])CC1 [Example 96] has Ki strictly beneath 0.09 nM.
Result block: y

Query block: Lab note: Ki threshold 0.09 nM. Does this molecule come in strictly under it? CN1CCC(Nc2ccc(S(=O)(=O)NC(=O)c3ccc(N4CCN(CC5=C(c6ccc(Cl)cc6)CC(C)(C)OC5)CC4)cc3Oc3ccc4[nH]ccc4c3)cc2[N+](=O)[O-])CC1 [Example 150]
Result block: y

====

measurement_target: GST-Bcl-2 (Homo sapiens)
method: TR-FRET binding assay, GST-Bcl-2 with F-Bak peptide probe
condition: TR-FRET Binding Affinity, GST-Bcl-2, F-Bak peptide probe
pKi: −log10 of the molar value.
Use 10 as the dividing line for pKi, with the line itself on the t side and lower values as f.

| smiles_data | group_label |
| --- | --- |
| CC1(C)CCC(CN2CCN(c3ccc(C(=O)NS(=O)(=O)c4ccc(NCCC#N)c([N+](=O)[O-])c4)c(Oc4cccc5[nH]ccc45)c3)CC2)=C(c2ccc(Cl)cc2)C1 | f |
| CN(C)CCCc1cccc(-c2ccc(Cl)cc2)c1CN1CCN(c2ccc(C(=O)NS(=O)(=O)c3ccc(NCC4CCOCC4)c([N+](=O)[O-])c3)c(Oc3cccc4[nH]ccc34)c2)CC1 | t |

Query block: Has CC1(C)CCC(CN2CCN(c3ccc(C(=O)NS(=O)(=O)c4ccc(OCC5(F)CCOCC5)c([N+](=O)[O-])c4)c(Oc4ccc5[nH]ccc5c4)c3)CC2)=C(c2ccc(Cl)cc2)C1 a recorded pKi greater than or equal to 10?
Result block: t

Query block: Does the reported pKi for O=C(NS(=O)(=O)c1ccc(NCC2CCOCC2)c([N+](=O)[O-])c1)c1ccc(N2CCN(Cc3cc(OCCN4CCCC4)ccc3-c3ccc(Cl)cc3)CC2)cc1Oc1ccccc1 fall at or above the 10 mark?
Result block: t

====

measurement_target: GST-Bcl-2 (Homo sapiens, UniProt P10415)
Sequence (P10415 whole entry): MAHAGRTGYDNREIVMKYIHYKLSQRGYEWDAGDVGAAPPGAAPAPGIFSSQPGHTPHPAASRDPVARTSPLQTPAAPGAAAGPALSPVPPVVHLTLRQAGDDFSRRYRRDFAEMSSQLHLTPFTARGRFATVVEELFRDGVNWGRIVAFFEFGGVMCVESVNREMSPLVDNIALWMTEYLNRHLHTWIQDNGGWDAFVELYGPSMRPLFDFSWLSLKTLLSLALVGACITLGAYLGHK
method: TR-FRET binding assay, GST-Bcl-2 with F-Bak peptide probe
condition: TR-FRET; Bcl-XL Ki divided by Bcl-2 Ki
measurement_type: Binding selectivity ratio (Bcl-XL Ki/Bcl-2 Ki)
Lab note: record just the number, no unit beside it.

| molecule | recorded_number |
| --- | --- |
| COCCOCCN1CCO[C@H](CNc2ccc(S(=O)(=O)NC(=O)c3ccc(N4CCN(CC5=C(c6ccc(Cl)cc6)CC(C)(C)CC5)CC4)cc3Oc3cccc4[nH]cnc34)cc2[N+](=O)[O-])C1 | 139.4 |

Query block: Report value only: Binding selectivity ratio (Bcl-XL Ki/Bcl-2 Ki), GST-Bcl-2 (Homo sapiens, UniProt P10415), CC1(C)CCC(CN2CCN(c3ccc(C(=O)NS(=O)(=O)c4cnc(OCC5CCOCC5)c(F)c4)c(Oc4cccc5[nH]ncc45)c3)CC2)=C(c2ccc(Cl)cc2)C1
Result block: 2287.2

Query block: Fill in Binding selectivity ratio (Bcl-XL Ki/Bcl-2 Ki) for CC1(C)CCC(CN2CCN(c3ccc(C(=O)NS(=O)(=O)c4ccc(NCC5COCCO5)c([N+](=O)[O-])c4)c(Oc4cccc5[nH]cnc45)c3)CC2)=C(c2ccc(Cl)cc2)C1 (centres unmarked) tested with GST-Bcl-2 (Homo sapiens, UniProt P10415).
Result block: 107.3

Query block: State Binding selectivity ratio (Bcl-XL Ki/Bcl-2 Ki) (GST-Bcl-2 (Homo sapiens, UniProt P10415)) of CC1(C)CCC(CN2CCN(c3ccc(C(=O)NS(=O)(=O)c4cnc(OCC5CCC(F)(F)CC5)c(Cl)c4)c(Oc4cccc5[nH]ncc45)c3)CC2)=C(c2ccc(Cl)cc2)C1 .
Result block: 5442.9

====

Here the recorded Ki is given for each entry.
measurement_target: UniProtKB P10415
method: TR-FRET binding assay, GST-Bcl-2 with F-Bak peptide probe
condition: TR-FRET Binding Affinity, GST-Bcl-2, F-Bak peptide probe
Report as a plain number; the unit nM is understood.

// worked examples, Ki included
| molecule | Ki, nM |
| --- | --- |
| CC1(C)CCC(CN2CCN(c3ccc(C(=O)NS(=O)(=O)c4ccc(NCC5CCS(=O)(=O)C5)c([N+](=O)[O-])c4)c(Oc4cccc5[nH]ccc45)c3)CC2)=C(c2ccc(Cl)cc2)C1 (stereo not drawn) | 0.116 |
| CC1(C)CCC(CN2CCN(c3ccc(C(=O)NS(=O)(=O)c4ccc(NCC(F)F)c([N+](=O)[O-])c4)c(Oc4ccc5[nH]ccc5c4)c3)CC2)=C(c2ccc(Cl)cc2)C1 | 0.504 |

Now, please, on to the next molecule.
Query block: Under UniProtKB P10415: report Ki of CC1(C)CCC(CN2CCN(c3ccc(C(=O)NS(=O)(=O)c4cnc(NCC5CCOCC5)c(C#N)c4)c(Oc4ccc5[nH]ccc5c4)c3)CC2)=C(c2ccc(Cl)cc2)C1 .
Result block: 6.82

====

measurement_target: GST-Bcl-XL (Homo sapiens, UniProt Q07817)
Sequence (Q07817 whole entry): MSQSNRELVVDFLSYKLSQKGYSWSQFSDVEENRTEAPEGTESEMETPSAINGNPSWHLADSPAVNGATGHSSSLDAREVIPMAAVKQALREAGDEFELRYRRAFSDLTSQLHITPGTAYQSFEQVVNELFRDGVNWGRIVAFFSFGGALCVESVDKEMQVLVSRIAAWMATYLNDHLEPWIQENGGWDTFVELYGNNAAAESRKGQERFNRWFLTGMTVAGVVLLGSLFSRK
method: TR-FRET binding assay, GST-Bcl-XL with F-Bak peptide probe
condition: TR-FRET Binding Affinity, GST-Bcl-XL, F-Bak peptide probe
pKi for assorted molecules
Would you please state pKi, meaning minus log10 of the concentration in mol/L, as a bare number?

| molecule | pKi |
| --- | --- |
| CC1(C)CCC(CN2CCN(c3ccc(C(=O)NS(=O)(=O)c4ccc(NCC5CCC(F)(F)CC5)c([N+](=O)[O-])c4)c(Oc4cccc5[nH]ncc45)c3)CC2)=C(c2ccc(Cl)cc2)C1 | 6.87 |
| CC1(C)CCC(CN2CCN(c3ccc(C(=O)NS(=O)(=O)c4ccc(NCC5CN(C6CC6)CCO5)c([N+](=O)[O-])c4)c(Oc4cccc5[nH]cnc45)c3)CC2)=C(c2ccc(Cl)cc2)C1 (centres unmarked) | 8.03 |
| CN(C)CCCNc1ccc(S(=O)(=O)NC(=O)c2ccc(N3CCN(Cc4ccccc4-c4ccc(Cl)cc4)CC3)cc2Oc2ccccc2)cc1C#N | 6.55 |

// next item, pKi requested
Query block: Enter recorded pKi with GST-Bcl-XL (Homo sapiens, UniProt Q07817) for CN(C)CCOc1ccc(-c2ccc(Cl)cc2)c(CN2CCN(c3ccc(C(=O)NS(=O)(=O)c4ccc(NN5CCN(C)CC5)c([N+](=O)[O-])c4)c(Oc4cccc5[nH]ccc45)c3)CC2)c1 here.
Result block: 7.48

====

measurement_target: UniProt:P10415
method: TR-FRET binding assay, GST-Bcl-2 with F-Bak peptide probe
condition: TR-FRET Binding Affinity, GST-Bcl-2, F-Bak peptide probe
measurement_type: Ki (nM)
State just the number; it will be interpreted in nM.

| compound | endpoint_unit | Ki |
| --- | --- | --- |
| CC1(C)CCC(CN2CCN(c3ccc(C(=O)NS(=O)(=O)c4ccc(NCC5(N)CCCCC5)c([N+](=O)[O-])c4)c(Oc4ccc5[nH]ccc5c4)c3)CC2)=C(c2ccc(Cl)cc2)C1 [Example 250] | nM | 0.266 |
| CO[C@H]1CC[C@@H](CNc2ccc(S(=O)(=O)NC(=O)c3ccc(N4CCN(CC5=C(c6ccc(Cl)cc6)CC(C)(C)CC5)CC4)cc3Oc3ccc4[nH]ccc4c3)cc2[N+](=O)[O-])CC1 [Example 313] | nM | 0.044 |
| CC(=O)N1CCC(Nc2ccc(S(=O)(=O)NC(=O)c3ccc(N4CCN(CC5=C(c6ccc(Cl)cc6)CC(C)(C)CC5)CC4)cc3Oc3cccc4[nH]ccc34)cc2[N+](=O)[O-])CC1 [Example 337] | nM | 0.535 |

Query block: Give UniProt:P10415 Ki for the following compound: CC1(C)CCC(CN2CCN(c3ccc(C(=O)NS(=O)(=O)c4ccc(NCCCN5CCS(=O)(=O)CC5)c([N+](=O)[O-])c4)c(Oc4cccc5[nH]ccc45)c3)CC2)=C(c2ccc(Cl)cc2)C1 [Example 295]
Result block: 0.183
